B1: TPR t1 (parent)
chain: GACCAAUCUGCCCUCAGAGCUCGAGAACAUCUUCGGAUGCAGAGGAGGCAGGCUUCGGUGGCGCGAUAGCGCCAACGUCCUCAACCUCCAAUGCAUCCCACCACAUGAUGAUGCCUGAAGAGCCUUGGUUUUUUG

# Variants of: B1
# ASSAY INFO: polymerase ribozyme fitness, log enrichment relative to wild type (log ratio); higher = more active; in vitro selection for triplet polymerase activity
READOUT LABEL: polymerase ribozyme fitness (log ratio)
// print number alone

Give the reported value of polymerase ribozyme fitness (log ratio) for this record: GACCAAUCUGCCCUCAGAGCUCGAGAACAUCUUCGGAUGCAGAGGAGGCAGGCUUCGGUGGCGAGAUAGCGCCAACGCCCGCAACCUCCAAUGCAUCCCACCACAUGAUGAUGCCUGAAAAGCCUUGGUUUUUUG [C64A U78C U81G G120A]
-6.42

Please give measured polymerase ribozyme fitness (log ratio) of the following entry: GACCAAUCUGCUCUCAGAGCUCGAGAACAUCUUCGGAUUCAGAGGAGGCAGGCUUCGGUGGCUCGAUAGCGCCAACCUCCUCAACCUCCAAUGCAUCCCACCACAUGAUGAUGCCUGAAGAGCCUUGGUUUUUUG [C12U G39U G63U G77C]
-3.85

Give the value of polymerase ribozyme fitness (log ratio) reported for the following: GACCAAUCUGCCCUCAGAGCUCGAGAACAUCUUGGGAUGCAGAGGAGGCAGGCUUCGGUGGCGCGAUAGCGCCAACGUCCUCAACCUCCAAUGCAUCCUACCACAUGAUGAUGCCUGAAGAGCCUUGGUAUUUUG [C34G C99U U130A]
-4.6

Identify measured polymerase ribozyme fitness (log ratio) corresponding to GACCAAUUUGCCCACAGAGCUCGAGAACAUCUUCGGAUGCAGAGGAGGCAGGCUUCGGUGGCGCGAUAGCGAUAACGUCCUCAACCUCCAAUGCAUCCCACCACAUGAUGAUGCCUGAAGAGCCUUGGUUUUUUG [C8U U14A C72A C73U]
-2.99

Tell me its polymerase ribozyme fitness (log ratio) given GACCAAUCUGCCCUCAGAGCUCGAGAACAUCUUCGGAUGCAGAGGAGGCAGACUUCGGUGGCGCGAUAGCGCCAACGUCUUCAACCUCCAAUGCAUCCCACCACAUGAUGAUGCCUGAAGAGCCUUGGUUUUUUG [G52A C80U] as the entry.
-1.94

Recall and state the measured polymerase ribozyme fitness (log ratio) for GACCAAUCUGCCCUCAGAGCUCGAGAACAUCUUCGGAUGCAGAGGAGGCAGGCUUCGGUGGCGCGAUAGCGCCAACGUCCUCAACCUCCCAUGCAUCCCACUACAUGAUGAUGCCUGAAGAGCCUUGGUUUUUUG [A90C C102U] .
-4.08

Return polymerase ribozyme fitness (log ratio) (reported value) for this variant: GACCAAUCUGCCCUCAGAGCUCGAGAACAUCUUCGGAUGCAGAGGAGGCAGGCUUCGGUGGCGCGAUAGCGCUAACGUCCUCAACCUCCAAUGCAUCCCACCACAUGAUGAUGCCUAAAUAGCCUUGGUUUUUUG [C73U G117A G120U]
-2.36
